# System: MRSA clinical isolates
# METHOD NOTES: Antibiotic susceptibility profile of MRSA clinical isolates (EUCAST breakpoints)
# Format: cell-based, Staphylococcus aureus
# PROTOCOL CONDITIONS: MRSA strain 49
EXPERIMENTAL READOUT: Drug sensibility profile

Consider the reported Drug sensibility profile for these compounds:
INSERT INTO assay_data (compound, experimental_target, assay_value) VALUES
  ('CN(C)[C@@H]1C(O)=C(C(N)=O)C(=O)[C@@]2(O)C(O)=C3C(=O)c4c(O)cccc4[C@@](C)(O)[C@H]3C[C@@H]12 [TET, tetracycline]', 'MRSA clinical isolates', 'R'),
  ('CN(C)c1cc(NC(=O)CNC(C)(C)C)c(O)c2c1C[C@H]1C[C@H]3[C@H](N(C)C)C(O)=C(C(N)=O)C(=O)[C@@]3(O)C(O)=C1C2=O [Tigecycline]', 'MRSA clinical isolates', 'S'),
  ('CNC(C)C1CCC(N)C(OC2C(N)CC(N)C(OC3OCC(C)(O)C(NC)C3O)C2O)O1 (stereo not drawn) [GEN, gentamicin]', 'MRSA clinical isolates', 'S'),
  ('CCC[C@@H]1C[C@@H](C(=O)N[C@@H]([C@H]2O[C@H](SC)[C@H](O)[C@@H](O)[C@H]2O)[C@H](C)Cl)N(C)C1 [CLIND, clindamycin]', 'MRSA clinical isolates', 'S'),
  ('CC(=O)O[C@H]1C[C@@]2(C)[C@@H](C[C@@H](O)[C@H]3[C@@]4(C)CC[C@@H](O)[C@@H](C)[C@@H]4CC[C@@]32C)/C1=C(\CCC=C(C)C)C(=O)O [Fusidic acid]', 'MRSA clinical isolates', 'S'),
  ('CC[C@H]1OC(=O)[C@H](C)[C@@H](O[C@H]2C[C@@](C)(OC)[C@@H](O)[C@H](C)O2)[C@H](C)[C@@H](O[C@@H]2O[C@H](C)C[C@H](N(C)C)[C@H]2O)[C@](C)(O)C[C@@H](C)C(=O)[C@H](C)[C@@H](O)[C@]1(C)O [ERI, erythromycin]', 'MRSA clinical isolates', 'I'),
  ('CCCCCCCCCC(=O)N[C@@H](Cc1c[nH]c2ccccc12)C(=O)N[C@H](CC(N)=O)C(=O)N[C@@H](CC(=O)O)C(=O)N[C@@H]1C(=O)NCC(=O)N[C@@H](CCCN)C(=O)N[C@@H](CC(=O)O)C(=O)N[C@H](C)C(=O)N[C@@H](CC(=O)O)C(=O)NCC(=O)N[C@H](CO)C(=O)N[C@@H]([C@H](C)CC(=O)O)C(=O)N[C@@H](CC(=O)c2ccccc2N)C(=O)O[C@@H]1C [Daptomycine]', 'MRSA clinical isolates', 'S'),
  ('Cc1cc(NS(=O)(=O)c2ccc(N)cc2)no1 [SUL, sulfamethoxazole]', 'MRSA clinical isolates', 'S');

Ask: What does the data say about its Drug sensibility profile? Entry: C/C(=C\C(=O)OCCCCCCCCC(=O)O)C[C@@H]1OC[C@H](C[C@@H]2O[C@H]2[C@@H](C)[C@H](C)O)[C@@H](O)[C@H]1O [Mupirocin]
Result: S

Ask: Same for CN[C@H](CC(C)C)C(=O)N[C@H]1C(=O)N[C@@H](CC(N)=O)C(=O)N[C@H]2C(=O)N[C@H]3C(=O)N[C@H](C(=O)N[C@H](C(=O)O)c4cc(O)cc(O)c4-c4cc3ccc4O)[C@H](O)c3ccc(c(Cl)c3)Oc3cc2cc(c3O[C@@H]2O[C@H](CO)[C@@H](O)[C@H](O)[C@H]2O[C@H]2C[C@](C)(N)[C@H](O)[C@H](C)O2)Oc2ccc(cc2Cl)[C@H]1O [Vancomycin, vancomycin]
Result: S

Ask: Same for CC(=O)NC[C@H]1CN(c2ccc(N3CCOCC3)c(F)c2)C(=O)O1 [Linezolid, linezolid]
Result: S

Ask: Same for CO/N=C(\C(=O)N[C@@H]1C(=O)N2C(C(=O)O)=C(COC(C)=O)CS[C@H]12)c1csc(N)n1 [CEF, cefotaxime]
Result: S

Every entry's value here was drawn from paper PMC11899342.
